attribute-measured: melting point (°C)
Give the quantity in °C, number only.

Exercise: Please give the measured melting point for this molecule: COc1nc2ccc(Br)cc2cc1C(c1ccccc1)C(O)(CCCCN(C)C)c1ccc2c(c1)OCO2 (stereo not shown)
Key: 98

Exercise: How about COc1ccc2cc(C(O)(CCCCN(C)C)C(c3ccccc3)c3cc4ccc(Br)cc4nc3OC)ccc2c1 (stereo not shown) ?
Key: 160

Exercise: Try COc1ccc2cc(C(O)(CCCCN(C)C)C(c3ccccc3)c3cc4c(Br)cccc4nc3OC)ccc2c1 (stereo not shown) next.
Key: 164

Exercise: Subsequent entry: COc1nc2ccc(Br)cc2cc1C(c1ccccc1)C(O)(CCCCN(C)C)c1ccc2ccccc2c1 (stereo not shown) [Compound 17]
Key: 170

Exercise: How about this molecule: CCN(CC)CCCCC(O)(CCc1cccc2ccccc12)C(c1ccccc1)c1cc2cc(Br)ccc2nc1OC (stereo not shown)
Key: 138

Exercise: Another: COc1nc2ccc(-c3ccco3)cc2cc1C(c1ccccc1)C(O)(CCCCN(C)C)c1ccc2ccccc2c1 (stereo not shown)
Key: 182

Exercise: What about COc1nc2ccc(Br)cc2cc1C(c1ccccc1)C(O)(CCCCN(C)C)c1cccnc1 (stereo not shown) ?
Key: 150

---

Tested on: STA 25923 (Staphylococcus aureus (ATCC25923))
Experiment: Microtitre plate assay, IC90 determination
Assay type: cell-based
Settings: Staphylococcus aureus (ATCC25923)
Please note: IC90 (μg/ml) STA 25923 exactly at 10 µg/mL is false. Only values below 10 µg/mL get true.

Exercise: Please indicate whether the reported IC90 (μg/ml) STA 25923 of COc1nc2ccc(Br)cc2cc1C(c1ccccc1)C(O)(CCCN1CCCC1)c1ccc2ccccc2c1 (racemic) [Compound 48] is strictly below 10 µg/mL.
Key: true

Exercise: How about COc1nc2ccc(Br)cc2cc1C(c1ccccc1)C(O)(CCCN(C)C)c1ccccc1 (stereo not shown) [Compound 44] ?
Key: false

Exercise: Please give the result for COc1nc2ccc(Br)cc2cc1C(c1ccccc1)C(O)(CCCCN(C)C)c1ccc2ccccc2c1 (stereo not shown) [Compound 17] too.
Key: true

Exercise: Another molecule to check: COc1nc2ccc(Br)cc2cc1C(c1ccccc1)C(O)(CCCCN(C)C)c1ccc2ccccc2c1 (stereo not shown) [Compound 22]
Key: false

Exercise: Ok, now COc1nc2ccc(Br)cc2cc1C(c1ccccc1)C(O)(CCCCN(C)C)c1ccc2ccccc2c1 (stereo not shown) [Compound 23]
Key: false

Exercise: And what about the molecule COc1nc2ccc(Br)cc2cc1C(c1ccccc1)C(O)(CCCN(C)C)c1ccccc1 (stereo not shown) [Compound 45] ?
Key: false

Exercise: Next record, please: COc1nc2ccc(Br)cc2cc1C(c1ccccc1)C(O)(CCCCN(C)C)c1ccccc1 (stereo not shown) [Compound 21]
Key: false

Exercise: Lookup COc1nc2ccc(Br)cc2cc1C(c1ccccc1)C(O)(CCCN(C)C)c1ccc2ccccc2c1 (stereo not shown) [Compound 47]
Key: false

Exercise: // next record CCN(CC)CCCC(O)(c1ccc2ccccc2c1)C(c1ccccc1)c1cc2cc(Br)ccc2nc1OC (stereo not shown) [Compound 52]
Key: false

Exercise: Consider next the molecule COc1nc2ccc(Br)cc2cc1C(c1ccccc1)C(O)(CCCN1CCCC1)c1ccc2ccccc2c1 (racemic) [Compound 49] in the same way.
Key: false

Exercise: Next up: COc1nc2ccc(Br)cc2cc1C(c1ccccc1)C(O)(CCCCN(C)C)c1ccc2ccccc2c1 (stereo not shown) [Compound 24]
Key: true

Exercise: Note, next up: COc1nc2ccc(Br)cc2cc1C(c1ccccc1)C(O)(CCCCN(C)C)c1ccc2ccccc2c1 (stereo not shown) [Compound 25]
Key: false

Exercise: Can you check COc1nc2ccc(Br)cc2cc1C(c1ccccc1)C(O)(CCCN(C)C)c1ccc2ccccc2c1 (stereo not shown) [Compound 46] next?
Key: false

---

Task for the reader: assign each of the following compounds its reported melting point.
The figure you give is taken to be in °C; do not add the unit.

Exercise: Given the compound COc1nc2ccccc2cc1C(c1ccccc1)C(O)(CCCCN(C)C)c1ccc2ccccc2c1 (centres unmarked) , what is its reported melting point?
Key: 105

Exercise: # iterate: COc1nc2cccc(Br)c2cc1C(c1ccccc1)C(O)(CCCCN(C)C)c1ccc2ccccc2c1 (centres unmarked)
Key: 170

Exercise: Would you kindly repeat that for COc1nc2ccc(CO)cc2cc1C(c1ccccc1)C(O)(CCCCN(C)C)c1ccc2ccccc2c1 (centres unmarked) ?
Key: 174

Exercise: Entry COc1nc2ccc(Br)cc2cc1C(c1ccccc1)C(O)(CCCCN(C)C)c1cc(F)cc(F)c1 (centres unmarked) please
Key: 157

Exercise: What do you have for COc1nc2ccc(-c3cccnc3)cc2cc1C(c1ccccc1)C(O)(CCCCN(C)C)c1ccccc1 (centres unmarked) ?
Key: 203

Exercise: Another: COc1ccc2cc(C(O)(CCCCN(C)C)C(c3ccccc3)c3cc4cc(Br)ccc4nc3OC)ccc2c1 (single isomer, unassigned)
Key: 96

Exercise: Try the compound COc1ccc2cc(C(O)(CCCCN(C)C)C(c3ccccc3)c3cc4ccccc4nc3OC)ccc2c1 (centres unmarked)
Key: 179

Exercise: Try this compound too: COc1nc2ccc(Br)cc2cc1C(c1ccccc1)C(O)(CCCCN(C)C)c1cc(F)ccc1F (centres unmarked)
Key: 166

Exercise: Same lookup for COc1nc2ccc(Br)cc2cc1C(c1ccccc1)C(O)(CCCCN(C)C)c1ccc2ccccc2c1 (centres unmarked) [Compound 22] , please.
Key: 166

Exercise: Follow-up item: CNCCCCC(O)(c1ccccc1)C(c1ccccc1)c1cc2cc(Br)ccc2nc1OC (centres unmarked)
Key: 121

Exercise: Continue with CNCCCC(O)(c1ccc(F)cc1)C(c1ccccc1)c1cc2cc(Br)ccc2nc1OC (centres unmarked)
Key: 188

---

System: EFA 29212 (Enterococcus faecalis (ATCC29212))
Test: Microtitre plate assay, IC90 determination
Format: cell-based
Conditions: Enterococcus faecalis (ATCC29212)
# if measured IC90 (μg/ml) EFA 29212 < 9 µg/mL: t  # else: f

Exercise: Consider the molecule COc1nc2ccc(Br)cc2cc1C(c1ccccc1)C(O)(CCCCN(C)C)c1ccc2ccccc2c1 (stereo not drawn) [Compound 22] . Is its IC90 (μg/ml) EFA 29212 strictly less than 9 µg/mL?
Key: t

Exercise: What about COc1nc2ccc(Br)cc2cc1C(c1ccccc1)C(O)(CCCN1CCCC1)c1ccc2ccccc2c1 (racemic) [Compound 49] ?
Key: f

Exercise: Let us now turn to COc1nc2ccc(Br)cc2cc1C(c1ccccc1)C(O)(CCCN(C)C)c1ccccc1 (stereo not drawn)
Key: f

Exercise: Another: COc1nc2ccc(Br)cc2cc1C(c1ccccc1)C(O)(CCCCN(C)C)c1ccc2cc(Br)ccc2c1 (stereo not drawn) [Compound 7]
Key: f

Exercise: Same for COc1nc2ccc(Br)cc2cc1C(c1ccccc1)C(O)(CCCCN1CCN(C)CC1)CCc1ccccc1 (single isomer, unassigned) [Compound 137]
Key: f

Exercise: Quick one: COc1nc2ccc(Br)cc2cc1C(c1ccccc1)C(O)(CCCCN1CCN(C)CC1)c1ccc2ccccc2c1 (single isomer, unassigned)
Key: t

Exercise: Another molecule: COc1ccc2cc(C(O)(CCCCN(C)C)C(c3ccccc3)c3cc4cc(Br)ccc4nc3OC)ccc2c1 (single isomer, unassigned) [Compound 6]
Key: f

Exercise: Another molecule: CNCCCC(O)(c1ccc(F)cc1)C(c1ccccc1)c1cc2cc(Br)ccc2nc1OC (stereo not drawn)
Key: f

Exercise: Cool, now COc1ccc2cc(C(O)(CCCCN(C)C)C(c3ccccc3)c3cc4c(Br)cccc4nc3OC)ccc2c1 (stereo not drawn) [Compound 26]
Key: t

Exercise: Another molecule to check: COc1nc2ccc(Br)cc2cc1C(c1ccc(Cl)c(Cl)c1)C(O)(CCCCN1CCCCC1)c1ccccc1 (single isomer, unassigned)
Key: t

Exercise: Check COc1ccc2cc(C(O)(CCCCN(C)C)C(c3ccccc3)c3cc4c(Br)cccc4nc3OC)ccc2c1 (stereo not drawn) [Compound 27] too.
Key: f

Exercise: Record: COc1nc2ccc(Br)cc2cc1C(c1ccccc1)C(O)(CCCCN(C)C)c1ccc2ccccc2c1 (stereo not drawn) [Compound 25]
Key: t

Exercise: Record: COc1nc2cc(Br)ccc2cc1C(c1ccccc1)C(O)(CCCCN(C)C)c1ccc2ccccc2c1 (stereo not drawn) [Compound 32]
Key: t

Exercise: Ok, now COc1ccc(C(c2cc3cc(Br)ccc3nc2OC)C(O)(CCCCN(C)C)c2ccc3ccccc3c2)cc1 (single isomer, unassigned)
Key: t

Exercise: Ok, now COc1nc2ccc(Br)cc2cc1C(c1ccccc1)C(O)(CCCN(C)C)c1ccc2ccccc2c1 (stereo not drawn)
Key: f

Exercise: Then this molecule: COc1ccc(C(O)(CCCCN2CCCCC2)C(c2ccc(C)cc2)c2cc3cc(Br)ccc3nc2OC)cc1 (single isomer, unassigned)
Key: t

Exercise: Now try COc1nc2ccc(Br)cc2cc1C(c1ccccc1)C(O)(CCCCN1CCN(C)CC1)CCc1ccccc1 (single isomer, unassigned) [Compound 138] .
Key: t

Exercise: And for CSc1nc2ccc(Br)cc2cc1C(c1ccccc1)C(O)(CCCCN(C)C)c1ccccc1 (stereo not drawn) [Compound 1] ?
Key: t

Exercise: How about this molecule: CSc1nc2ccc(Br)cc2cc1C(c1ccccc1)C(O)(CCCCN(C)C)c1ccccc1 (stereo not drawn) [Compound 2]
Key: f

Exercise: // next record COc1nc2ccc(C)cc2cc1C(c1ccccc1)C(O)(CCCCCN(C)C)c1ccccc1 (single isomer, unassigned)
Key: f

Exercise: Another molecule to look at: COc1nc2c(C)c(Br)ccc2cc1C(c1ccccc1)C(O)(CCCCN(C)C)c1ccc2ccccc2c1 (racemic)
Key: t

Exercise: What do you get for COc1nc2ccccc2cc1C(c1cccc(Br)c1)C(O)(CCCCN(C)C)c1ccc2ccccc2c1 (single isomer, unassigned) ?
Key: t

Exercise: Also, COc1nc2ccc(Br)cc2cc1C(c1ccccc1)C(O)(CCCCN(C)C)c1ccccc1 (stereo not drawn) please.
Key: f

Exercise: Quick one: COc1nc2ccc(Br)cc2cc1C(c1ccccc1)C(O)(CCCCN1CCNCC1)c1ccc2ccccc2c1 (stereo not drawn)
Key: t
